# System: Salmonella typhimurium
# Method summary: Antimicrobial activity against Salmonella typhimurium ATCC 14028 assessed as inhibition of visible bacterial growth incubated for 18 hrs by broth-dilution method
# Assay type: functional, Salmonella enterica subsp. enterica serovar Typhimurium
# Reported conditions: Salmonella enterica
Numbered stars: 1 amine (or outer) side, 2 acyl side, 3 side chain; on linkers, the order of the positions; unused ones are H or OH. Square brackets hold non-standard residues; d marks the D form. Peptide text beside a SMILES is read from it. * marks the point of attachment. X8 = NC(=O)CN(C[C@H](Cc1ccccc1)N*)S(=O)(=O)c1cc(C(F)(F)F)cc(C(F)(F)F)c1; X5 = NC(=O)CN(C[C@H](Cc1ccccc1)N*)S(=O)(=O)c1ccc(C(F)(F)F)cc1; X3 = CC(C)C[C@@H](CN(CC(N)=O)S(=O)(=O)c1ccc(C(F)(F)F)cc1)N*; X4 = N[C@@H](Cc1ccccc1)CN(CC(=O)[*:2])[*:1]; X7 = O=S(=O)(c1cc(C(F)(F)F)cc(C(F)(F)F)c1)*; X2 = CC(C)C[C@H](N)CN(CC(=O)[*:2])[*:1]; X1 = O=S(=O)(c1ccc(C(F)(F)F)cc1)*
Quantity measured: MIC

Some entries whose results are on file:
CC(C)C[C@H](NC(=O)[C@H](CC(C)C)NC(=O)[C@H](CCCCN)NC(=O)[C@H](CCCCN)NC(=O)[C@H](CC(C)C)NC(=O)[C@H](CC(C)C)NC(=O)[C@H](CCCCN)NC(=O)CN(C[C@@H](N)Cc1ccccc1)S(=O)(=O)c1cc(C(F)(F)F)cc(C(F)(F)F)c1)C(N)=O (X7-[X4]KLLKKLL-NH2) ... 8 µg/mL
CC(C)C[C@H](NC(=O)[C@H](CC(C)C)NC(=O)[C@H](CCCCN)NC(=O)[C@H](CCCCN)NC(=O)[C@H](CC(C)C)NC(=O)[C@H](C)NC(=O)[C@H](CCCCN)NC(=O)CN(C[C@@H](N)Cc1ccccc1)S(=O)(=O)c1cc(C(F)(F)F)cc(C(F)(F)F)c1)C(N)=O (X7-[X4]KALKKLL-NH2) ... 8 µg/mL
CC(C)C[C@H](NC(=O)[C@H](CC(C)C)NC(=O)[C@H](CCCCN)NC(=O)[C@H](CCCCN)NC(=O)[C@H](CC(C)C)NC(=O)[C@H](C)NC(=O)[C@H](CCCCN)NC(=O)CN(C[C@@H](N)Cc1ccccc1)S(=O)(=O)c1ccc(C(F)(F)F)cc1)C(N)=O (X1-[X4]KALKKLL-NH2) ... 16 µg/mL

The compound listed as CC(C)C[C@H](N)CN(CC(=O)N[C@@H](CCCCN)C(=O)N[C@@H](CC(C)C)C(=O)N[C@@H](CC(C)C)C(=O)N[C@@H](CCCCN)C(=O)N[C@@H](CCCCN)C(=O)N[C@@H](CC(C)C)C(=O)N[C@@H](CC(C)C)C(N)=O)S(=O)(=O)c1cc(C(F)(F)F)cc(C(F)(F)F)c1 (X7-[X2]KLLKKLL-NH2) has a reported MIC of 16 µg/mL

Sure, the documented MIC for CC(C)C[C@H](NC(=O)[C@H](CC(C)C)NC(=O)[C@H](CCCCN)NC(=O)[C@H](CC(C)C)NC(=O)[C@@H](N)Cc1ccccc1)C(=O)N[C@@H](CCCCN)C(=O)N[C@@H](CCCCN)C(=O)N[C@@H](Cc1ccccc1)CN(CC(N)=O)S(=O)(=O)c1ccc(C(F)(F)F)cc1 (H-FLKLLKK-X5) is 16 µg/mL

Just so you know, measured MIC for CC1(C)S[C@@H]2[C@H](NC(=O)[C@H](N)c3ccc(O)cc3)C(=O)N2[C@H]1C(=O)O [AMOXICILLIN] came out at 256 µg/mL

Sample C[C@@H](O)[C@H]1C(=O)N2C(C(=O)O)=C(SCCNC=N)C[C@H]12 [IMIPENEM ANHYDROUS] ; MIC observed: 1 µg/mL

CC(C)C[C@H](NC(=O)[C@H](CC(C)C)NC(=O)[C@H](CCCCN)NC(=O)[C@H](CC(C)C)NC(=O)[C@@H](N)Cc1ccccc1)C(=O)N[C@@H](CCCCN)C(=O)N[C@@H](CCCCN)C(=O)N[C@@H](Cc1ccccc1)CN(CC(N)=O)S(=O)(=O)c1cc(C(F)(F)F)cc(C(F)(F)F)c1 (H-FLKLLKK-X8) yielded MIC of 8 µg/mL

Input CC(C)C[C@@H](CN(CC(N)=O)S(=O)(=O)c1ccc(C(F)(F)F)cc1)NC(=O)[C@H](CCCCN)NC(=O)[C@H](CCCCN)NC(=O)[C@H](CC(C)C)NC(=O)[C@H](CC(C)C)NC(=O)[C@H](CCCCN)NC(=O)[C@H](CC(C)C)NC(=O)[C@@H](N)Cc1ccccc1 (H-FLKLLKK-X3) . Output MIC: 16 µg/mL

Briefly, MIC measured for CC(C)C[C@H](NC(=O)[C@H](C)NC(=O)[C@H](CCCCN)NC(=O)[C@H](CC(C)C)NC(=O)[C@@H](N)Cc1ccccc1)C(=O)N[C@@H](CCCCN)C(=O)N[C@@H](CCCCN)C(=O)N[C@@H](Cc1ccccc1)CN(CC(N)=O)S(=O)(=O)c1cc(C(F)(F)F)cc(C(F)(F)F)c1 (H-FLKALKK-X8) : 32 µg/mL
